All figures here come from PubChem BioAssay (NCI).

Consider the following compounds and their measured TGI readings.
Tested on: NCI-H460 lung
Assay: NCI tumour cell line growth inhibition, 48 h

• O=C(N/S(=N/S(=O)(=O)c1ccc(Br)cc1)C(Cl)(Cl)Cl)c1ccccc1 (stereo not given) = > 100 µM

Retrieve TGI on NCI-H460 lung; query O=S1CCN(Cc2ccc(-c3ccc4ncnc(Nc5ccc(OCc6ccccc6)c(Cl)c5)c4c3)o2)CC1
> 25 µM

Retrieve TGI on NCI-H460 lung; query O=C(CCl)Nc1ccc2c(c1)C(=O)c1ccccc1C2=O
5.61 µM

Retrieve TGI on NCI-H460 lung; query CC(=O)CC1(OC(=O)C2C(C=C(C)C)C2(C)C)C(=O)Nc2ccccc21 (stereo not given)
> 100 µM

Retrieve TGI on NCI-H460 lung; query N#C/C(=C\c1cc(F)cc(F)c1)c1ccccn1
74 µM

Retrieve TGI on NCI-H460 lung; query CN(C)c1ccc(/C=C/c2nc3ccccc3s2)cc1
> 100 µM

Retrieve TGI on NCI-H460 lung; query COC(=O)/C(C#N)=C(\Nc1ccccc1)N1CCCC1
> 100 µM

Retrieve TGI on NCI-H460 lung; query O=C1/C(=C/c2ccccc2)CN(C(=O)C(F)(F)F)C/C1=C\c1ccccc1
2.97 µM

Retrieve TGI on NCI-H460 lung; query CC(=O)OC1COC(N2CCc3ccccc32)C(OC(C)=O)C1OC(C)=O (stereo not given)
> 100 µM

Retrieve TGI on NCI-H460 lung; query Cc1c(-c2ccccc2)c(C#N)c2nnn(-c3ccc([N+](=O)[O-])cc3)c(=O)n12
> 100 µM
